Origin of measurements: patent US10774092B2

The entries below are paired with their reported IC50.
target: ULK1; assay: ULK1 inhibition assay (Table 1); conditions: * = tested as a mixture of regioisomers
measuredMetric: IC50

                                    molecule  targetofassay  measuredmetric  experimentalresult
 0  O=[N+]([O-])c1cnc(NC2CC2)nc1NC1CC1 [Example 291b]           ULK1            IC50              > 2 µM
 1  CNC(=O)c1c(O)cccc1Oc1nc(Nc2cc(OC)c(OC)c(OC)c2)ncc1Br           ULK1            IC50            < 0.2 µM
 2  O=C1CCc2cc(Nc3ncc(C(F)(F)F)c(OC4COC4)n3)ccc2N1 [Example 231a]           ULK1            IC50            < 0.2 µM
 3  O=C1CCc2cc(Nc3ncc(C(F)(F)F)c(O)n3)ccc2N1 [Example 231b]           ULK1            IC50              > 2 µM
 4  O=C1CCc2cc(Nc3ncc(C(F)(F)F)c(NC4CNC4)n3)ccc2N1 [Example 198a]           ULK1            IC50         0.2 to 2 µM
 5  NCCCNc1nc(Nc2ccc3c(c2)CCC(=O)N3)ncc1C(F)(F)F           ULK1            IC50            < 0.2 µM
 6  COc1cc(Nc2ncc(Cl)c(N(C)C(=O)c3ccccc3O)n2)cc(OC)c1OC [Example 234b]           ULK1            IC50         0.2 to 2 µM
 7  COc1cc(Nc2ncc(Br)c(Oc3ccccc3C(=O)N3CCCC3)n2)cc(OC)c1OC           ULK1            IC50            < 0.2 µM
 8  O=C1CCc2cc(Nc3ncc(C(F)(F)F)c(OCCNC(=O)OCc4ccccc4)n3)ccc2N1           ULK1            IC50              > 2 µM
 9  CNC(=O)c1cccc(OC)c1Oc1nc(Nc2cc(OC)c(OC)c(OC)c2)ncc1Br           ULK1            IC50            < 0.2 µM
10  COc1cc(Nc2ncc(Br)c(Oc3ccccc3NC(C)=O)n2)cc(OC)c1OC [Example 254a]           ULK1            IC50            < 0.2 µM
11               Oc1ncc(C(F)(F)F)c(NC2CC2)n1           ULK1            IC50              > 2 µM
12  FC(F)(F)c1cnc(Nc2ccon2)nc1NC1CC1 [Example 214a]           ULK1            IC50         0.2 to 2 µM
13  COCc1ccccc1Oc1nc(Nc2cc(OC)c(OC)c(OC)c2)ncc1Br           ULK1            IC50            < 0.2 µM
14  O=C1Cc2cc(Nc3ncc(C(F)(F)F)c(NC4CC4)n3)ccc2N1           ULK1            IC50            < 0.2 µM
